Recorded values, source patent US8227424B2.

Assay: in vivo
Conditions: male, Wister, rat, po, 215 nmol/10 mL
Square brackets hold non-standard residues; d marks the D form. Peptide text beside a SMILES is read from it. Hyp = O=C(O)[C@@H]1C[C@@H](O)CN1
measured_parameter: level at time molar (µM)
Respond with the bare value in µM.

Data request: Supply measured level at time molar of O=C(O)[C@@H]1C[C@@H](O)CN1C(=O)[C@@H]1CCCN1 [Referential Example 1-1, Pro-Hyp] (H-Pro-[Hyp]-OH; N-terminus and C-terminus assumed) in your reply.
Data returned: 21.3

Data request: Supply measured level at time molar of N[C@@H](CO)C(=O)N1C[C@H](O)C[C@H]1C(=O)O [Comparative Example 3, Ser-Hyp] (H-Ser-[Hyp]-OH; N-terminus and C-terminus assumed) in your reply.
Data returned: 0.7

Data request: Supply measured level at time molar of O=C(O)CNC(=O)[C@@H]1C[C@@H](O)CN1 [Example 1, Hyp-Gly] (H-[Hyp]-Gly-OH; N-terminus and C-terminus assumed) in your reply.
Data returned: 9.8

Data request: Supply measured level at time molar of C[C@H](N)C(=O)N1C[C@H](O)C[C@H]1C(=O)O [Referential Example 1-2, Ala-Hyp] (H-Ala-[Hyp]-OH; N-terminus and C-terminus assumed) in your reply.
Data returned: 1.2
